Would you kindly list Survival days ave. ± s. d. for each of these compounds?
system: P388 mouse leukemia cells; assay: Life-span-prolonging (anti-tumor) effect on mice subcutaneously inoculated with P388 mouse leukemia cells; format: in vivo, mouse (CDF1 female); conditions: 0.1 mg/kg i.v. on days 1, 5 and 9; all marked ** (p < 0.01)
Just the number please, in days, no unit attached.

Q: Query (compound): CCCCCCCCCCCCCCCCCCCCCC[C@@H](O)C(=O)N[C@@H](CO[C@H]1O[C@H](CO)[C@H](O)[C@H](O[C@@H]2O[C@@H]([C@H](O)CO)[C@H](O)[C@H]2O)[C@H]1O)[C@H](O)[C@H](O)CCCCCCCCCCCCC [Compound 14] ; field requested: Survival days ave. ± s. d.
Ans: 13.8

Q: // lookup Survival days ave. ± s. d. for CCCCCCCCCCCCCCCCCCCCCC[C@@H](O)C(=O)N[C@@H](CO[C@H]1O[C@H](CO)[C@H](O)[C@H](O[C@H]2O[C@H](CO)[C@H](O)[C@H](O)[C@H]2NC(C)=O)[C@H]1O[C@H]1O[C@H](CO)[C@@H](O)[C@H](O)[C@H]1O)[C@H](O)[C@H](O)CCCCCCCCCCCC [Compound 1]
Ans: 15.3

Q: Name the reported Survival days ave. ± s. d. value associated with the compound CCCCCCCCCCCCCCCCCCCCCC[C@@H](O)C(=O)N[C@@H](CO[C@H]1O[C@H](CO)[C@H](O)[C@H](O[C@H]2O[C@H](CO)[C@H](O)[C@H](O)[C@H]2NC(C)=O)[C@H]1O[C@H]1O[C@H](CO)[C@@H](O)[C@H](O)[C@H]1O)[C@H](O)[C@H](O)CCCCCCCCCCCCCC [Compound 4]
Ans: 15.2

Q: Survival days ave. ± s. d. lookup needed for CCCCCCCCCCCCCCCCCCCCCC[C@@H](O)C(=O)N[C@@H](CO[C@H]1O[C@H](CO)[C@H](O)[C@H](O[C@H]2O[C@H](CO)[C@H](O)[C@H](O)[C@H]2NC(C)=O)[C@H]1O[C@H]1O[C@H](CO)[C@@H](O)[C@H](O)[C@H]1O)[C@H](O)[C@H](O)CCCCCCCCCCCCCC [Compound 6] , thanks.
Ans: 15.8

Q: Which Survival days ave. ± s. d. reading was recorded for the compound CCCCCCCCCCCCCCCCCCCCCC[C@@H](O)C(=O)N[C@@H](CO[C@H]1O[C@H](CO)[C@H](O)[C@H](O[C@H]2O[C@H](CO)[C@H](O)[C@H](O)[C@H]2NC(C)=O)[C@H]1O[C@H]1O[C@H](CO)[C@@H](O)[C@H](O)[C@H]1O)[C@H](O)[C@H](O)CCCCCCCCCCCC(C)C [Compound 3] ?
Ans: 15.0

Q: Would you kindly share the measured Survival days ave. ± s. d. for CCCCCCCCCCCCCCCCCCCCCCCCCC(=O)N[C@@H](CO[C@H]1O[C@H](CO[C@H]2O[C@H](CO)[C@H](O)[C@H](O)[C@H]2O)[C@H](O)[C@H](O)[C@H]1O)[C@H](O)[C@H](O)CCCCCCCCCCCCCC [Compound 33] ?
Ans: 15.0

Q: Return reported Survival days ave. ± s. d.; argument: CCCCCCCCCCCCCCCCCCCCCCCCCC(=O)N[C@@H](CO[C@H]1O[C@H](CO[C@H]2O[C@H](CO)[C@H](O)[C@H](O)[C@H]2O)[C@@H](O)[C@H](O)[C@H]1O)[C@H](O)[C@H](O)CCCCCCCCCCCCCC [Compound 31]
Ans: 14.6

---

test system: mixed lymphocyte culture reaction (spleen cells of C57BL/6 and BALB/C mice); assay: Mixed lymphocyte culture reaction (MLR); assay type: cell-based, mouse (C57BL/6 stimulator, BALB/C responder); conditions: 1 × 10^0 μg/ml, 42 hours; 2520 min
Assignment: determine reported MLR activating rate (%) for the given molecules.
A number alone suffices; assume %.

Q: MLR activating rate (%) lookup needed for CCCCCCCCCCCCCCCCCCCCCC[C@@H](O)C(=O)N[C@@H](CO[C@H]1O[C@H](CO)[C@H](O)[C@H](O[C@H]2O[C@H](CO)[C@H](O)[C@H](O)[C@H]2NC(C)=O)[C@H]1O[C@H]1O[C@H](CO)[C@@H](O)[C@H](O)[C@H]1O)[C@H](O)[C@H](O)CCCCCCCCCCCCCC [Compound 8] , thanks.
Ans: 286

Q: Entry CCCCCCCCCCCCCCCCCCCCCC[C@@H](O)C(=O)N[C@@H](CO[C@H]1O[C@H](CO)[C@H](O)[C@H](O[C@H]2O[C@H](CO)[C@H](O)[C@H](O)[C@H]2NC(C)=O)[C@H]1O[C@H]1O[C@H](CO)[C@@H](O)[C@H](O)[C@H]1O)[C@H](O)[C@H](O)CCCCCCCCCCCC(C)C [Compound 7] : reported MLR activating rate (%) = ?
Ans: 234

Q: # lookup: MLR activating rate (%) of CCCCCCCCCCCCCCCCCCCCCC[C@@H](O)C(=O)N[C@@H](CO[C@H]1O[C@H](CO)[C@H](O)[C@H](O[C@H]2O[C@H](CO)[C@H](O)[C@H](O)[C@H]2NC(C)=O)[C@H]1O[C@H]1O[C@H](CO)[C@@H](O)[C@H](O)[C@H]1O)[C@H](O)[C@H](O)CCCCCCCCCCCC(C)C [Compound 5]
Ans: 189

---

test system: mixed lymphocyte culture reaction (spleen cells of C57BL/6 and BALB/C mice); experiment: Mixed lymphocyte culture reaction (MLR); assay type: cell-based, mouse (C57BL/6 stimulator, BALB/C responder); conditions: 1 × 10^0 μg/ml, 42 hours; 2520 min
Assignment: determine reported MLR activating rate (%) for the given compounds.
Quick note: give the figure in %, leave out the unit.

Q: Any idea what MLR activating rate (%) came out for CCCCCCCCCCCCCCCCCCCCCC[C@@H](O)C(=O)N[C@@H](CO[C@H]1O[C@H](CO)[C@H](O)[C@H](O[C@H]2O[C@H](CO)[C@H](O)[C@H](O)[C@H]2NC(C)=O)[C@H]1O[C@H]1O[C@H](CO)[C@@H](O)[C@H](O)[C@H]1O)[C@H](O)[C@H](O)CCCCCCCCCCCC(C)C [Compound 3] on mixed lymphocyte culture reaction (spleen cells of C57BL/6 and BALB/C mice)?
Ans: 210

Q: API: value(readout=MLR activating rate (%), system=mixed lymphocyte culture reaction (spleen cells of C57BL/6 and BALB/C mice)) for record CCCCCCCCCCCCCCCCCCCCCC[C@@H](O)C(=O)N[C@@H](CO[C@H]1O[C@H](CO)[C@H](O)[C@H](O[C@H]2O[C@H](CO)[C@H](O)[C@H](O)[C@H]2NC(C)=O)[C@H]1O[C@H]1O[C@H](CO)[C@@H](O)[C@H](O)[C@H]1O)[C@H](O)[C@H](O)CCCCCCCCCCCCCC [Compound 6]
Ans: 228

Q: Requested read-out MLR activating rate (%), target or system mixed lymphocyte culture reaction (spleen cells of C57BL/6 and BALB/C mice), entry CCCCCCCCCCCCCCCCCCCCCC[C@@H](O)C(=O)N[C@@H](CO[C@H]1O[C@H](CO)[C@H](O)[C@H](O[C@H]2O[C@H](CO)[C@H](O)[C@H](O)[C@H]2NC(C)=O)[C@H]1O[C@H]1O[C@H](CO)[C@@H](O)[C@H](O)[C@H]1O)[C@H](O)[C@H](O)CCCCCCCCCCCCCC [Compound 4]
Ans: 209

---

test system: mouse splenic lymphocyte; test: In vitro mouse splenic lymphocyte-proliferation-stimulating effect (3H-TdR uptake); assay type: cell-based, mouse (BDF1 female); details: 10^-3 μg/ml, 2 days; 2880 min
observable: Uptake of 3H-TdR (% of control), splenic lymphocytes

Q: I am curious: what Uptake of 3H-TdR (% of control), splenic lymphocytes value has been reported for CCCCCCCCCCCCCCCCCCCCCC[C@@H](O)C(=O)N[C@@H](CO[C@H]1O[C@H](CO)[C@H](O)[C@H](O[C@H]2O[C@H](CO)[C@H](O)[C@H](O)[C@H]2NC(C)=O)[C@H]1O[C@H]1O[C@H](CO)[C@@H](O)[C@H](O)[C@H]1O)[C@H](O)[C@H](O)CCCCCCCCCCCCCC [Compound 8] ?
Ans: 609 % of control

Q: Need Uptake of 3H-TdR (% of control), splenic lymphocytes of CCCCCCCCCCCCCCCCCCCCCC[C@@H](O)C(=O)N[C@@H](CO[C@H]1O[C@H](CO)[C@H](O)[C@H](O[C@H]2O[C@H](CO)[C@H](O)[C@H](O)[C@H]2NC(C)=O)[C@H]1O[C@H]1O[C@H](CO)[C@@H](O)[C@H](O)[C@H]1O)[C@H](O)[C@H](O)CCCCCCCCCCCC(C)C [Compound 3] , thanks.
Ans: 258 % of control
